- System: MS2 coat protein
- protocol text: apparent KD of MS2 coat protein; designed switch direction (-1 OFF switch, 1 ON switch): -1; higher = weaker reporter binding
- condition description: input ligand: none
apparent KD of MS2 coat protein values by entry

sequence content	output unit	apparent KD of MS2 coat protein
UUUAGUUCAGGAUAUGUAGAUUUAAACAUGAGGAUCACCCAUGUAAAUCCUGAUCCUGCUACAGAAGGGAACAUUU [Mat - Exclusion 5 - Eli Mod - D11] (Eterna round: R97, puzzle: Exclusion 5)	nM	12.7
UAAAUUAUAGUAAGGAUAUCAGUCGCGAAAGUGGCUGAGAAGGUACAUGAGGAUCACCCAUGUGAAAUAAGAAU [Mod of Zala 17 - Jieux - Brourd's Mod of Exclusion 4] (Eterna round: R97, puzzle: Brourd's mod of Exclusion 4)	nM	20
AAACGGCAGGGAGGAUAUGCUUACCUGGGUCGUCUUCAAACAUGAGGAUCACCCAUGUAGUCGACGCAGAAGGCCCUCAAAGCC [JL ViennaUCT Ontiis mod] (Eterna round: R96, puzzle: Exclusion NG 2)	nM	18.6
CGUGUACUGCAGGAUAUCCUAGAUGCGGACAUCGGAGAAGGGCAGACAUGAGGAUCACCCAUGUGUGGCGGAGA [EX6 B.16] (Eterna round: R97, puzzle: Exclusion 6)	nM	67.3
